From: patent USRE46511E1

Test system: HCC827 (EGFR DelE746_A750)
Experimental Protocol: Inhibition test for growth of cancer cell expressing EGFR (SRB), HCC827;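 note: cells in 96-well plates exposed to tenfold serial dilutions from 100 µM, fixed with trichloroacetic acid, SRB-stained, absorbance read at 540 nm, DMSO under 1%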
Format: cell-based
Test Conditions: Homo sapiens, HCC827, 72 h, HCC827 cells, 72 hours, SRB; read-out: GI50 HCC827 EGFR DelE746_A750
I'd be grateful if you could share measured GI50 for these entries.

Which GI50 value belongs to `C=CC(=O)Nc1cccc(Oc2nc(Nc3ccc4c(c3)NCCOC4)nc3ccsc23)c1` ?
< 50 nM

Which GI50 value belongs to `C=CC(=O)Nc1cccc(Oc2nc(Nc3ccc(OCCOC)c(F)c3)nc3ccsc23)c1` ?
50 to 100 nM

Which GI50 value belongs to `C=CC(=O)Nc1ccc(F)c(Nc2nc(Nc3ccc(N4CCN(C)CC4)cc3)nc3ccsc23)c1` ?
< 50 nM

Which GI50 value belongs to `C=CC(=O)Nc1cccc(Oc2nc(Nc3ccc(N4CCN(C)CC4)c(OC)c3)nc3ccoc23)c1` ?
< 50 nM

----------
Measurement Label: IC50

Request body: readout IC50, system BTK (Homo sapiens, UniProt Q06187), query `C=CC(=O)Nc1cccc(Oc2nc(Nc3ccc(C(=O)N4CCN(C)CC4)cc3)nc3ccsc23)c1` . Return the value.
≤ 50 nM

Request body: readout IC50, system BTK (Homo sapiens, UniProt Q06187), query `C=CC(=O)Nc1cccc(Oc2nc(Nc3ccc(N4CCC(N5CCCCC5)CC4)c(F)c3)nc3ccsc23)c1` . Return the value.
≤ 50 nM

Request body: readout IC50, system BTK (Homo sapiens, UniProt Q06187), query `C=CC(=O)Nc1cccc(Oc2nc(Nc3ccc(CS(C)(=O)=O)cc3)nc3ccsc23)c1` . Return the value.
50 to 100 nM

Request body: readout IC50, system BTK (Homo sapiens, UniProt Q06187), query `C=CC(=O)Nc1cccc(Oc2nc(Nc3ccc(C4CCN(CC)CC4)cc3)nc3ccsc23)c1` . Return the value.
≤ 50 nM

Request body: readout IC50, system BTK (Homo sapiens, UniProt Q06187), query C=CC(=O)Nc1cccc(Oc2nc(Nc3ccc(N4CC5CC4CN5C)cc3)nc3ccsc23)c1 (stereo not shown) . Return the value.
≤ 50 nM

Request body: readout IC50, system BTK (Homo sapiens, UniProt Q06187), query `C=CC(=O)Nc1cccc(Oc2nc(Nc3ccc(C(=O)N4CCN(C5CCN(C)CC5)CC4)cc3)nc3ccsc23)c1` . Return the value.
≤ 50 nM

Request body: readout IC50, system BTK (Homo sapiens, UniProt Q06187), query `C=CC(=O)Nc1cccc(Oc2nc(Nc3ccc(CN(CC)CC)cc3)nc3ccsc23)c1` . Return the value.
≤ 50 nM

Request body: readout IC50, system BTK (Homo sapiens, UniProt Q06187), query `C=CC(=O)Nc1ccc(F)c(Nc2nc(Nc3ccc(N4CCN(C)CC4)c(F)c3)nc3ccsc23)c1` . Return the value.
≤ 50 nM

Request body: readout IC50, system BTK (Homo sapiens, UniProt Q06187), query `C=CC(=O)Nc1cccc(Oc2nc(Nc3ccc(CN4CCC(N(C)C)CC4)cc3)nc3ccsc23)c1` . Return the value.
≤ 50 nM

Request body: readout IC50, system BTK (Homo sapiens, UniProt Q06187), query `C=CC(=O)Nc1cccc(Oc2nc(Nc3ccc(C(=O)NC4CCN(C(C)C)CC4)cc3)nc3ccsc23)c1` . Return the value.
≤ 50 nM

Request body: readout IC50, system BTK (Homo sapiens, UniProt Q06187), query `C=CC(=O)Nc1cccc(Oc2nc(Nc3ccc(CN4CCOCC4)cc3)nc3ccsc23)c1` . Return the value.
50 to 100 nM

Request body: readout IC50, system BTK (Homo sapiens, UniProt Q06187), query `C=CC(=O)Nc1cccc(Oc2nc(Nc3ccc(NC4CCN(C)CC4)cc3)nc3ccsc23)c1` . Return the value.
≤ 50 nM

Request body: readout IC50, system BTK (Homo sapiens, UniProt Q06187), query C=CC(=O)Nc1cccc(Oc2nc(Nc3ccc(C(=O)N4CCC(NC)C4)cc3)nc3ccsc23)c1 (stereo not shown) . Return the value.
≤ 50 nM

Request body: readout IC50, system BTK (Homo sapiens, UniProt Q06187), query C=CC(=O)Nc1cccc(Oc2nc(Nc3ccc(CN4CCC(N(C)C)C4)cc3)nc3ccsc23)c1 (stereo not shown) . Return the value.
≤ 50 nM

Request body: readout IC50, system BTK (Homo sapiens, UniProt Q06187), query `C=CC(=O)Nc1cccc(Oc2nc(Nc3ccc(NC4CCN(C)CC4)c(F)c3)nc3ccoc23)c1` . Return the value.
≤ 50 nM

Request body: readout IC50, system BTK (Homo sapiens, UniProt Q06187), query `C=CC(=O)Nc1cccc(Oc2nc(Nc3ccc(C(=O)N4CCOCC4)cc3)nc3ccsc23)c1` . Return the value.
50 to 100 nM

Request body: readout IC50, system BTK (Homo sapiens, UniProt Q06187), query `C=CC(=O)Nc1cccc(Oc2nc(Nc3ccc(N4CCN(C)CC4)c(F)c3)nc3ccsc23)c1` . Return the value.
≤ 50 nM

Request body: readout IC50, system BTK (Homo sapiens, UniProt Q06187), query `C=CC(=O)Nc1cccc(Oc2nc(Nc3ccc(N4CCN(C)CC4)cc3)nc3ccsc23)c1` . Return the value.
≤ 50 nM

Request body: readout IC50, system BTK (Homo sapiens, UniProt Q06187), query `C=CC(=O)Nc1cccc(Oc2nc(Nc3ccc(NC4CCN(C(C)C)CC4)c(F)c3)nc3ccsc23)c1` . Return the value.
50 to 100 nM

Request body: readout IC50, system BTK (Homo sapiens, UniProt Q06187), query `C=CC(=O)Nc1cccc(Oc2nc(Nc3ccc(C4CCN(C)CC4)c(F)c3)nc3ccsc23)c1` . Return the value.
50 to 100 nM

Request body: readout IC50, system BTK (Homo sapiens, UniProt Q06187), query `C=CC(=O)Nc1cccc(Oc2nc(Nc3ccc(CN4CCC(N(C)C)CC4)cc3)nc3ccoc23)c1` . Return the value.
≤ 50 nM

Request body: readout IC50, system BTK (Homo sapiens, UniProt Q06187), query `C=CC(=O)Nc1cccc(Oc2nc(Nc3ccc(OCCN(C)C)cc3)nc3ccsc23)c1` . Return the value.
≤ 50 nM

----------
Test system: NCI-H1975 (EGFR L858R/T790M)
Experimental Protocol: Inhibition test for growth of cancer cell expressing EGFR (MTS), NCI-H1975
Format: cell-based
Test Conditions: Homo sapiens; NCI-H1975 cells, 48 hours, MTS; read-out: GI50 NCI-H1975 EGFR L858R/T790M
I'd be grateful if you could share measured GI50 for these entries.

Which GI50 value belongs to `C=CC(=O)Nc1cccc(Oc2nc(Nc3ccc(N4CCN(C(=O)CN(C)C)CC4)c(F)c3)nc3ccsc23)c1` ?
< 50 nM

Which GI50 value belongs to `C=CC(=O)Nc1cccc(Oc2nc(Nc3ccc(N4CCN(C)CC4)c(F)c3)nc3ccsc23)c1` ?
< 50 nM

Which GI50 value belongs to `C=CC(=O)Nc1cccc(Oc2nc(Nc3ccc(N4CCC(N5CCOCC5)CC4)c(Cl)c3)nc3ccsc23)c1` ?
< 50 nM

Which GI50 value belongs to `C=CC(=O)Nc1cccc(Oc2nc(Nc3ccc4c(c3)CCCC(=O)N4C)nc3ccsc23)c1` ?
50 to 100 nM

Which GI50 value belongs to `C=CC(=O)Nc1cccc(Oc2nc(Nc3ccc(NC(=O)N4CCN(C)CC4)cc3)nc3ccsc23)c1` ?
< 50 nM

Which GI50 value belongs to `C=CC(=O)Nc1cccc(Oc2nc(Nc3ccc(OCCN4CCN(C)CC4)c(F)c3)nc3ccsc23)c1` ?
< 50 nM

Which GI50 value belongs to `C=CC(=O)Nc1cccc(Oc2nc(Nc3ccc(C4CCN(C)CC4)cc3OC)nc3ccsc23)c1` ?
< 50 nM

Which GI50 value belongs to `C=CC(=O)Nc1cccc(Oc2nc(Nc3ccc(N4CCN(CC(F)(F)F)CC4)cc3)nc3ccsc23)c1` ?
< 50 nM

Which GI50 value belongs to `C=CC(=O)Nc1cccc(Oc2nc(Nc3ccc(NC4CCN(C(C)C)CC4)nc3)nc3ccsc23)c1` ?
50 to 100 nM

Which GI50 value belongs to `C=CC(=O)Nc1cccc(Oc2nc(Nc3ccc(C(=O)N4CCN(CC)CC4)cc3)nc3ccsc23)c1` ?
< 50 nM

Which GI50 value belongs to `C=CC(=O)Nc1cccc(Oc2nc(Nc3ccc(CN4CCN(CC)CC4)cc3)nc3ccsc23)c1` ?
< 50 nM

Which GI50 value belongs to `C=CC(=O)Nc1cccc(Oc2nc(Nc3ccc(S(=O)(=O)N4CCN(CC)CC4)cc3)nc3ccsc23)c1` ?
50 to 100 nM

Which GI50 value belongs to `C=CC(=O)Nc1cccc(Oc2nc(Nc3ccc(CN(C)C)cc3C)nc3ccsc23)c1` ?
< 50 nM

Which GI50 value belongs to `C=CC(=O)Nc1cccc(Oc2nc(Nc3ccc(C4CCN(C(C)C)CC4)cc3)nc3ccsc23)c1` ?
< 50 nM

Which GI50 value belongs to `C=CC(=O)Nc1cccc(Oc2nc(Nc3ccc(N4CCN(S(C)(=O)=O)CC4)cc3)nc3ccsc23)c1` ?
< 50 nM

Which GI50 value belongs to `C=CC(=O)Nc1cccc(Oc2nc(Nc3ccc(CCN4CCN(CC)CC4)cc3)nc3ccsc23)c1` ?
< 50 nM

Which GI50 value belongs to `C=CC(=O)Nc1ccc(F)c(Nc2nc(Nc3ccc(N4CCN(C)CC4)cc3)nc3ccsc23)c1` ?
50 to 100 nM

Which GI50 value belongs to `C=CC(=O)Nc1cccc(Oc2nc(Nc3ccc(CN4CCCCC4)cc3)nc3ccsc23)c1` ?
< 50 nM

Which GI50 value belongs to `C=CC(=O)Nc1cccc(Nc2nc(Nc3ccc(N4CCN(C)CC4)c(F)c3)nc3ccsc23)c1` ?
< 50 nM

Which GI50 value belongs to `C=CC(=O)Nc1cccc(Oc2nc(Nc3ccc(N4CCN(CCOC)CC4)cc3)nc3ccsc23)c1` ?
< 50 nM

Which GI50 value belongs to `C=CC(=O)Nc1cccc(Oc2nc(Nc3ccc(-n4ccnc4)cc3)nc3ccsc23)c1` ?
< 50 nM

Which GI50 value belongs to `C=CC(=O)Nc1cccc(Oc2nc(Nc3ccc(N4CCN(C5CCCCC5)CC4)cc3)nc3ccsc23)c1` ?
< 50 nM

Which GI50 value belongs to `C=CC(=O)Nc1cccc(Oc2nc(Nc3ccc(NC(=O)CCN4CCCC4)cc3)nc3ccsc23)c1` ?
< 50 nM

Which GI50 value belongs to `C=CC(=O)Nc1cccc(Oc2nc(Nc3ccc(N4CCN(CC)CC4)cn3)nc3ccsc23)c1` ?
< 50 nM

Which GI50 value belongs to `C=CC(=O)Nc1cccc(Oc2nc(Nc3ccc(C(=O)NCCN4CCCC4)cc3OC)nc3ccsc23)c1` ?
50 to 100 nM

Which GI50 value belongs to `C=CC(=O)Nc1cccc(Oc2nc(Nc3ccc(N4CCN(C5CCN(C)CC5)CC4)cc3)nc3ccsc23)c1` ?
< 50 nM

Which GI50 value belongs to C=CC(=O)Nc1cccc(Oc2nc(Nc3ccc(N4CC5CC4CN5C)cc3)nc3ccsc23)c1 (stereo not drawn) ?
< 50 nM

Which GI50 value belongs to `C=CC(=O)Nc1cccc(Oc2nc(Nc3ccc(N4CCC(CO)CC4)cc3)nc3ccsc23)c1` ?
50 to 100 nM

Which GI50 value belongs to `C=CC(=O)Nc1cccc(Oc2nc(Nc3ccc(C(=O)N4CCN(S(=O)(=O)CC)CC4)c(Cl)c3)nc3ccsc23)c1` ?
50 to 100 nM

Which GI50 value belongs to `C=CC(=O)Nc1cccc(Oc2nc(Nc3ccc(OC4CCN(C)CC4)c(F)c3)nc3ccsc23)c1` ?
< 50 nM
